// values below are reported solubility kinetic at 4 h
# experiment: Kinetic (aqueous) solubility in pH 7.4 DPBS, UV quantification
# assay setup: 25 °C, pH 7.4, aqueous buffer, kinetic from dmso stock

Worked cases, answers included:
compound	solubility kinetic at 4 h
C[Si](C)(CCC[N+](CCCCS(=O)(=O)[O-])(CCCCS(=O)(=O)[O-])CCCCS(=O)(=O)[O-])O[Si@@]1(O[Si](C)(C)CCC[N+](CCCCS(=O)(=O)[O-])(CCCCS(=O)(=O)[O-])CCOCCOCCC(=O)[O-])n2c3c4ccccc4c2/N=C2N=C(/N=c4/c5ccccc5/c(n41)=N/C1=NC(=N\3)/c3ccccc31)c1ccccc1\2.[Na+].[Na+].[Na+].[Na+] [Example 18]	> 100 µg/mL
C[Si](C)(CCC[N+](CCCS(=O)(=O)[O-])(CCCS(=O)(=O)[O-])CCCS(=O)(=O)[O-])O[Si@@]1(O[Si](C)(C)CCC[N+](CCCS(=O)(=O)[O-])(CCCS(=O)(=O)[O-])CCOCCOCCOCCC(=O)[O-])n2c3c4ccccc4c2/N=C2N=C(/N=c4/c5ccccc5/c(n41)=N/C1=NC(=N\3)/c3ccccc31)c1ccccc1\2.[Na+].[Na+].[Na+].[Na+] [Example 19]	> 100 µg/mL

Query: Report solubility kinetic at 4 h for C[Si](C)(CCC[N+](CCCCS(=O)(=O)O)(CCCCS(=O)(=O)O)CCCCS(=O)(=O)O)O[Si-2]123(O[Si](C)(C)CCC[N+](CCCCS(=O)(=O)O)(CCCCS(=O)(=O)O)CCOCCOCCOCCC(=O)O)n4c5c6ccccc6c4N=C4c6ccccc6C(=[N+]41)N=c1c4ccccc4c(n12)=NC1=[N+]3C(=N5)c2ccccc21.[Na+].[Na+].[Na+].[Na+] [Example 17]
Reply: > 100 µg/mL

###

solubility thermodynamic at 24 h: recorded values
# experiment: Thermodynamic solubility in pH 7.4 DPBS, UV quantification
# Assay type: physicochemical
# assay setup: Dulbecco's phosphate-buffered saline (DPBS), aqueous buffer, thermodynamic from solid, room temperature (25° C.)
# Protocol: A working 1 mM stock solution of the test compound in DMSO was prepared from a 10 mM DMSO stock solution. A spectrum scan from 220 nm to 1000 nm of this working solution was performed in a 96-well UV plate to identify the wavelength maxima. […] The resulting solution was placed on a RotoSpin™ shaker at 50 rpm for 24 hours at room temperature (25° C.). […] A 150 μL aliquot of the filtrate was taken for quantification using UV spectroscopy (POLARstar Omega BMG Plate Reader). […]

substance smiles	solubility thermodynamic at 24 h
C[Si](C)(CCC[N+](CCCCS(=O)(=O)O)(CCCCS(=O)(=O)O)CCCCS(=O)(=O)O)O[Si-2]123(O[Si](C)(C)CCC[N+](CCCCS(=O)(=O)O)(CCCCS(=O)(=O)O)CCOCCOCCOCCOCCC(=O)O)n4c5c6ccccc6c4N=C4c6ccccc6C(=[N+]41)N=c1c4ccccc4c(n12)=NC1=[N+]3C(=N5)c2ccccc21.[Na+].[Na+].[Na+].[Na+]	> 100 µg/mL

Query: Provide measured solubility thermodynamic at 24 h value, entry: C[Si](C)(CCCNC(=O)CCCCC(=O)O)O[Si-2]123(O[Si](C)(C)CCCNC(=O)C(CCC[N+](CCCS(=O)(=O)O)(CCCS(=O)(=O)O)CCCS(=O)(=O)O)CCC[N+](CCCS(=O)(=O)O)(CCCS(=O)(=O)O)CCCS(=O)(=O)O)n4c5c6ccccc6c4N=C4c6ccccc6C(=[N+]41)N=c1c4ccccc4c(n12)=NC1=[N+]3C(=N5)c2ccccc21.[Na+].[Na+].[Na+].[Na+].[Na+]
Reply: > 100 µg/mL
